Known % Relative Activity (RA) on Biacore of a selection of binders
# STUDY_TARGET: T1, human Gal10-His (human, UniProt Q05315 2-142, limits assumed)
# T1 construct: also called hGal10-His; human Gal10-His tagged; not shown: His tag
# T1 sequence: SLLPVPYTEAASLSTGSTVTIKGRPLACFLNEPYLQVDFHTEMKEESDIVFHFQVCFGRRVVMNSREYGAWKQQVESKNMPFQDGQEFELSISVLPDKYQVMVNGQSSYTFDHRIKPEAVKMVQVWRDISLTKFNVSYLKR
# ASSAY_PROCEDURE: SPR slope against calibrators on captured Gal10-His; T0 sample
Note: unit % is implicit; provide only the numeric part.

g24F02 (human Fab) (Fab, V domains shown, Human Fab backbone (human CH1, human lambda CL); also called germlined 24F02) VH: EVQLLESGGGLVQPGGSLRLSCAASGFTFSSYAMSWVRQAPGKGLEWVSAINNGGGSTSYADSVKGRFTISRDNSKNTLYLQMNSLRAEDTAVYYCAKGLRVGVLGFDYWGQGTLVTVSS VL: SYELTQPLSVSVALGQTARITCDGNNIGSKSAQWYQQKPGQAPVLVIYADEYRPEGIPERFSGSNSGNTATLTISRAQAGDEADYYCQVWDGSAAVFGGGTQLTVL	101
g20H09 (Fab) (Fab, V domains shown, same VH/VL) VH: EVQLLESGGGLVQPGGSLRLSCAASGFTFRSYDMSWVRQAPGKGLEWVSAIKWHRITYYADSVKGRFTISRDNSKNTLYLQMNSLRAEDTAVYYCATTHGIGTLGFGSWGQGTLVTVSS VL: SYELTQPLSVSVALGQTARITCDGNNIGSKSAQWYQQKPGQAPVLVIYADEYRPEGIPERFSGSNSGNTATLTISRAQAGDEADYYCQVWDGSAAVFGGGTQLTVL	110
g23H09 (Fab) (Fab, V domains shown, same VH/VL) VH: EVQLLESGGGLVQPGGSLRLSCAASGFTFRSYDMSWVRQAPGKGLEWVSAIAQFQHWTYYADSVKGRFTISRDNSKNTLYLQMNSLRAEDTAVYYCATTHGIGTLGFGSWGQGTLVTVSS VL: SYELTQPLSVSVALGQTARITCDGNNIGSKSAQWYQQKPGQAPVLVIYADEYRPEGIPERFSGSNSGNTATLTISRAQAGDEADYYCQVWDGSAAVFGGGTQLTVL	98

Suppose we examine the binder g24F02_N53A (human Fab) (Fab, V domains shown, Human Fab backbone: human CH1 and human lambda constant domain (pUPEX vectors); also called g24F02_N53A_2W) VH: EVQLLESGGGLVQPGGSLRLSCAASGFTFSSYAMSWVRQAPGKGLEWVSAINAGGGSTSYADSVKGRFTISRDNSKNTLYLQMNSLRAEDTAVYYCAKGLRVGVLGFDYWGQGTLVTVSS VL: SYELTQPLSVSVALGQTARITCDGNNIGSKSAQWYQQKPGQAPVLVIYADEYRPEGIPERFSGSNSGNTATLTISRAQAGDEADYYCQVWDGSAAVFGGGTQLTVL ; what % Relative Activity (RA) on Biacore value has been reported?
98
